- experimentalTarget: anaplastic lymphoma kinase (ALK wt, GST-HIS-tag) (Homo sapiens)
- Construct: GST; His; purchased ProQinase GmbH (Freiburg, Germany); host or cells: bacteria (so in the source)
- Sequence (Q9UM73 19-1620): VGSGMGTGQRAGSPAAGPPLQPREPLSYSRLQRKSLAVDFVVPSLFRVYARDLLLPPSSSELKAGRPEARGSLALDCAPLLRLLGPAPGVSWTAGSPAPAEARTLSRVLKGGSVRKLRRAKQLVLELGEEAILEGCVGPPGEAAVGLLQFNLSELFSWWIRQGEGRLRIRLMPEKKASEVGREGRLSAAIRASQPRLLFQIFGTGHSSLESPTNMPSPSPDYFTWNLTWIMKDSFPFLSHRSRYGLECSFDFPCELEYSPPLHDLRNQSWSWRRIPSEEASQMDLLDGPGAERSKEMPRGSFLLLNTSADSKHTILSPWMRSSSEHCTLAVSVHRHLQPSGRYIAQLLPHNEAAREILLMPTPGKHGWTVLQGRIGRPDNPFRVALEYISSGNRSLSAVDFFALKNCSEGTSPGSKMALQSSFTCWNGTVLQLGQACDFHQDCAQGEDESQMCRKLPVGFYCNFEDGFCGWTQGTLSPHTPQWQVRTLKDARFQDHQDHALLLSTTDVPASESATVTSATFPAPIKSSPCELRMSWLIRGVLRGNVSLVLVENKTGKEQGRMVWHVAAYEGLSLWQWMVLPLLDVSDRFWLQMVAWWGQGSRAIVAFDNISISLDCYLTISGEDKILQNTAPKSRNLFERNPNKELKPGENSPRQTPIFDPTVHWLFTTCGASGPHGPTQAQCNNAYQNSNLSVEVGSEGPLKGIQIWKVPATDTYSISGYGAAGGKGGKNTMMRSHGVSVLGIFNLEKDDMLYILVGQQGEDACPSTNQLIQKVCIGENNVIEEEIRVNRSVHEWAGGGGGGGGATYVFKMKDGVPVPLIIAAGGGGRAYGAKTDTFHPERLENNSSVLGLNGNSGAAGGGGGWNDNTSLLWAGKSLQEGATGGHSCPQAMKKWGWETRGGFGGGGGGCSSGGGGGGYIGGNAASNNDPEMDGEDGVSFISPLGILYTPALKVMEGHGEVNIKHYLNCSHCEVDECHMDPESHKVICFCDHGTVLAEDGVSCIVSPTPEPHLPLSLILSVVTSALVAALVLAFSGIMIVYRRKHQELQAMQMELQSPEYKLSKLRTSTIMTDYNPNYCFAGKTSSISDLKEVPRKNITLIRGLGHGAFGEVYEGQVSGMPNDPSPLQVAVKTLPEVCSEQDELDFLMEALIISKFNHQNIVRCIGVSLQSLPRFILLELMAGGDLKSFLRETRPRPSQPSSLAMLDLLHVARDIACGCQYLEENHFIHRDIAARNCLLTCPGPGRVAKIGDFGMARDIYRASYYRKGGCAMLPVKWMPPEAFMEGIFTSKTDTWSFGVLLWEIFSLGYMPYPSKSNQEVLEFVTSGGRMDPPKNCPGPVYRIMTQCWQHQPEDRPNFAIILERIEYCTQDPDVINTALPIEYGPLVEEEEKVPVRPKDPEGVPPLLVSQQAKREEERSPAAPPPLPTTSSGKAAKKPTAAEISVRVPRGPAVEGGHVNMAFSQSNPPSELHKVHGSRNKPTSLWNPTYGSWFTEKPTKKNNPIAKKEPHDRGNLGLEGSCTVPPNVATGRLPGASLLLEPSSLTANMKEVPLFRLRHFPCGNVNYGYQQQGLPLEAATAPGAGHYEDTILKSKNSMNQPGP
- assayMethodText: radiometric protein kinase assay, anaplastic lymphoma kinase
- Assay type: biochemical
- experimentalContext: Fig. 7A
measurementName: IC50 (nM)
Note: unit nM is implicit; provide only the numeric part.

For CC(=O)C1=C(O)C=C2Oc3c(C(N)=O)c(O)cc(O)c3[C@]2(C)C1=O [cercosporamide, Cercosporamide] the compound record lists IC50 as 10000

* * *

- experimentalTarget: BMPR1A (ALK3) (Homo sapiens)
- Construct: purchased ProQinase GmbH (Freiburg, Germany); host or cells: bacteria (so in the source)
- Sequence (P36894 24-532): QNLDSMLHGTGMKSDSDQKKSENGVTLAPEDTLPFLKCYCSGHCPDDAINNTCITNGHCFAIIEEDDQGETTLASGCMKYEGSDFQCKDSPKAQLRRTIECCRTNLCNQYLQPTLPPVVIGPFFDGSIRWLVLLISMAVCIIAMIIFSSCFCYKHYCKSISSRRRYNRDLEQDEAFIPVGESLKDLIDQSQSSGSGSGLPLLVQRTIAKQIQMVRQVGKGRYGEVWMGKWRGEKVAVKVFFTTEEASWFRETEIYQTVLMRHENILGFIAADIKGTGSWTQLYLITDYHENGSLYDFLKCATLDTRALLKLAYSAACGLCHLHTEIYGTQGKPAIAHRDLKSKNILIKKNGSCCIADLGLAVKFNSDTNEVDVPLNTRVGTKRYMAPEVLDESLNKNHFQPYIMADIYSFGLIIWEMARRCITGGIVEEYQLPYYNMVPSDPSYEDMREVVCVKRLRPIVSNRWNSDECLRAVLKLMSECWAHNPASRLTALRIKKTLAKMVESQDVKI
- assayMethodText: radiometric protein kinase assay, ALK3
- Format: biochemical
- experimentalContext: [ATP] = 0.3μM; Fig. 7F
measurementName: pIC50
Would you please state pIC50, meaning minus log10 of the concentration in mol/L, as a bare number?

Form field pIC50 for item CC(=O)C1=C(O)C=C2Oc3c(C(N)=O)c(O)cc(O)c3[C@]2(C)C1=O [cercosporamide, Cercosporamide] on BMPR1A (ALK3) (Homo sapiens): 6.44

This collection of values is drawn from paper PMC7522027.
